Parameter IC50, HIV-1 inhibition assay: see the listing below.
Molecular target: CXC chemokine receptor type 4 (CXCR4) (human, UniProt P61073 1-352)
Sequence (P61073 whole entry): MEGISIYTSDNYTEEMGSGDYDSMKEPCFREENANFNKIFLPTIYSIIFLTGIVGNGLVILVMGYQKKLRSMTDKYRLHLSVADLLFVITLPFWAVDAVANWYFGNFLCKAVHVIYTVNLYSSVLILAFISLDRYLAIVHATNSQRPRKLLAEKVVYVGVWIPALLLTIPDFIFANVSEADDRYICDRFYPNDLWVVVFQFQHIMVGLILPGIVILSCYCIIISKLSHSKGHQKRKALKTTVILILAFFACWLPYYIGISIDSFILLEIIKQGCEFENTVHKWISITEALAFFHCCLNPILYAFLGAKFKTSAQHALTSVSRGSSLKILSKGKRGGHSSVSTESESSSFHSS
Assay: cell-based or functional assay
Where no end group is shown, it is not given here. [ ]: non-standard residue; d: D form.
property name: IC50, HIV-1 inhibition assay (nM)

ILRWSRKLPCVS (also: peptide copies coupled to the two different ends of PEG 20 kDa) [SC029]: 98
[dL]MRWSRKMPCVS (ends and bridges not checked) [JM#36]: 206
ILRWSRKLPCVS (also: coupled to PEG 20 kDa, site not given here) [SC024]: 118
ILRWSRKLPCVS (also: PEG-coupled, average 5 kDa) [SC033]: 716
XLRWSRKMPCVS (d-M at position 1) [JM#28]: 246

// data source = patent US20230131339A1
